protocol.notes: Selectivity index, ratio of CC50 for mouse L929 cells to IC50 for Trypanosoma cruzi Tulahuen expressing Escherichia coli beta-galactosidase infected in L929 cells
Format: toxicity
experimental.parameters: read-out: Ratio CC50/IC50
Could you mark each record 1 if its selectivity ratio falls strictly under 10, and 0 if it equals or exceeds it?

Answered cases to consult:
- CN(C)CCOc1ccc(N2CCN(S(=O)(=O)c3ccc(F)cc3)CC2)cc1: 0
- CN(C)CCOc1ccc(N2CCN(C(=O)c3ccc(Cl)cc3)CC2)cc1: 0
- CN(C)CCOc1ccc(N2CCN(S(=O)(=O)c3ccc(Br)cc3)CC2)cc1: 0
- CN(C)CCOc1ccc(N2CCN(S(=O)(=O)c3ccccc3)CC2)cc1: 1
- N#CCOc1ccc(N2CCN(S(=O)(=O)c3ccc(Cl)cc3)CC2)cc1: 0

For the next question, use this compound.
Would you kindly verify if selectivity ratio of COc1ccc(OC)c(S(=O)(=O)N2CCN(c3ccc(OCCN(C)C)cc3)CC2)c1 is strictly less than 10?
0

---

protocol.notes: Cytotoxicity against human THP-1 cells incubated for 72 hrs by Alamar blue assay
Assay type: toxicity, cell-based
// reported CC50 at 72 h per item
Numbers only here, please. The scale is µM.

Worked cases, CC50 at 72 h given:
• N#CCOc1ccc(N2CCN(S(=O)(=O)c3ccc(Cl)cc3)CC2)cc1 = 46.6
• CN(C)CCNc1ccc(C(=O)N2CCN(S(=O)(=O)c3ccc(Cl)cc3)CC2)cn1 = 388
• CN(C)CCOc1ccc(N2CCN(S(=O)(=O)c3ccc(Br)cc3)CC2)cc1 = 283

Now for another entry.
CC50 at 72 h for NCCOc1ccc(C(=O)N2CCN(S(=O)(=O)c3ccc(Cl)cc3)CC2)cc1 is 911

---

protocol.notes: Cytotoxicity against human THP-1 cells incubated for 72 hrs by Alamar blue assay
Format: toxicity, cell-based
Could you mark each record t if its CC50 at 72 h falls strictly under 300 µM, and f if it equals or exceeds it?

Answered cases to consult:
• CN(C)CCOc1ccc(N2CCN(S(=O)(=O)c3ccc(F)cc3)CC2)cc1 = f
• CN(C)CCOc1ccc(N2CCN(S(=O)(=O)c3ccc([N+](=O)[O-])cc3)CC2)cc1 = f
• COc1ccc(Cl)cc1S(=O)(=O)N1CCN(c2ccc(OCCN(C)C)cc2)CC1 = t
• CN(C)CCOc1cccc(N2CCN(S(=O)(=O)c3ccc(Cl)cc3)CC2)c1 = t
• COc1ccc(OC)c(S(=O)(=O)N2CCN(c3ccc(OCCN(C)C)cc3)CC2)c1 = t

Would you kindly verify if CC50 at 72 h of CN(C)CCOc1ccc(N2CCN(S(=O)(=O)c3ccccc3Br)CC2)cc1 is strictly less than 300 µM?
t

Would you kindly verify if CC50 at 72 h of O=C(c1ccc([N+](=O)[O-])cc1)N1CCN(S(=O)(=O)c2ccc(Cl)cc2)CC1 is strictly less than 300 µM?
f

Would you kindly verify if CC50 at 72 h of COc1ccc(S(=O)(=O)N2CCN(c3ccc(OCCN(C)C)cc3)CC2)cc1 is strictly less than 300 µM?
f

Would you kindly verify if CC50 at 72 h of N#CCOc1ccc(C(=O)N2CCN(S(=O)(=O)c3ccc(Cl)cc3)CC2)cc1 is strictly less than 300 µM?
f

Would you kindly verify if CC50 at 72 h of CN(C)CCOc1ccc(N2CCN(C(=O)c3ccc(Cl)cc3)CC2)cc1 is strictly less than 300 µM?
f
